- MEASURED ON: T1, PSMA Fab (006 PSMA Fab) (biotinylated (site not stated))
- T1 construct: also called Anti-PSMA Fab; anti-PSMA Fab
- TEST PROTOCOL: clonal phage ELISA on captured PSMA Fab, wells pre-incubated with PSMA antigen as competitor
Where no end group is shown, it is not given here.
MEASURED ENDPOINT: phage binding ELISA signal (Anti-PSMA Fab with PSMA)
Could you respond with only the numeric value?

Fill blank: measured phage binding ELISA signal (Anti-PSMA Fab with PSMA) of the binder SEYRCVPNWMCSGF (cysteine pairing not given here; also: fused to pIII of bacteriophage, not shown: fused to pIII of the bacteriophage) [Phage-3346] is ____. 0.0791

Fill blank: measured phage binding ELISA signal (Anti-PSMA Fab with PSMA) of the binder QYPVCKPAWMCEGF (cysteine pairing not given here; also: fused to pIII of bacteriophage, not shown: fused to pIII of the bacteriophage) [Phage-3341] is ____. 0.0971

Fill blank: measured phage binding ELISA signal (Anti-PSMA Fab with PSMA) of the binder VDALCRPSWMCIGF (cysteine pairing not given here; also: fused to pIII of bacteriophage, not shown: fused to pIII of the bacteriophage) [Phage-3338] is ____. 0.0688
